- Test system: E13 (patient-derived glioblastoma stem cells of classical subtype);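 further: nuclei counted by high-content imaging of Hoechst-stained cells in laminin-coated 384-well plates, relative to 0.1% DMSO vehicle wells, with staurosporine as cell-death control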
- Experiment description: surviving fraction (nuclei count normalised to DMSO); higher = more cells surviving (less toxic)
- Assay conditions: 3000 nM; exposure time: 72 h
Counter-ions that a name gives are not always drawn.
Assignment: determine reported surviving fraction for the given molecules.
Write the value as a bare number.

query: Need surviving fraction of CN[C@@H]1[C@@H](O)[C@@H](O[C@@H]2[C@@H](O)[C@H](O[C@H]3OC(CN)=CC[C@H]3N)[C@@H](N)C[C@H]2N)OC[C@]1(C)O [Sisomicin sulfate] , thanks.
result: 0.959

query: Need surviving fraction of COc1cccc2c1C(=O)c1c(O)c3c(c(O)c1C2=O)C[C@@](O)(C(=O)CO)C[C@@H]3O[C@H]1C[C@H](N)[C@H](O[C@@H]2CCCCO2)[C@H](C)O1 [Pirarubicin] , thanks.
result: 0.0218

query: Need surviving fraction of CCOC(=O)OC(C)OC(=O)[C@@H]1N2C(=O)[C@@H](NC(=O)[C@H](N)c3ccccc3)[C@H]2SC1(C)C (some centres undefined) [Bacampicillin hydrochloride] , thanks.
result: 1.11

query: Need surviving fraction of O=c1[nH]c(=O)n([C@H]2C[C@H](O)[C@@H](CO)O2)cc1I [Idoxuridine] , thanks.
result: 1.06

query: Need surviving fraction of O=[N+]([O-])c1ccc2c(c1)S(=O)(=O)C=C2 [Stattic] , thanks.
result: 0.0209

query: Need surviving fraction of O=C(CCBr)N1CCN(C(=O)CCBr)CC1 [Pipobroman] , thanks.
result: 0.98

query: Need surviving fraction of CN(C(=O)CN(CCO)CC(=O)N(C)C(C)(C)Cc1ccccc1)C(C)(C)Cc1ccccc1 [Oxethazaine] , thanks.
result: 0.951

query: Need surviving fraction of COC(=O)Nc1nc2cc(C(=O)c3ccc(F)cc3)ccc2[nH]1 [Flubendazol] , thanks.
result: 0.234

query: Need surviving fraction of C#C[C@]1(O)CC[C@H]2[C@@H]3CCC4=CCCC[C@@H]4[C@H]3CC[C@@]21C [Lynestrenol] , thanks.
result: 0.88

query: Need surviving fraction of CC(C)C[C@H](NC(=O)CNC(=O)c1cc(Cl)ccc1Cl)B(O)O [Ixazomib] , thanks.
result: 0.00174

query: Need surviving fraction of CC[N+](CC)(CC)CCOc1ccc(/C=C/c2ccccc2)cc1 [MG 624] , thanks.
result: 0.636

query: Need surviving fraction of COc1cc(/C=C/C(=O)N2CCC=CC2=O)cc(OC)c1OC [Piperlongumine] , thanks.
result: 0.767

query: Need surviving fraction of CNc1ccc2oc(C[C@H]3O[C@@]4(CC[C@H]3C)O[C@H]([C@H](C)C(=O)c3ccc[nH]3)[C@H](C)C[C@H]4C)nc2c1C(=O)O [Calcimycin] , thanks.
result: 0.061

query: Need surviving fraction of CC[C@@]1(O)C(=O)OCc2c1cc1n(c2=O)Cc2cc3cc(O)ccc3nc2-1 [Hydroxy Camptothecine] , thanks.
result: 0.141

query: Need surviving fraction of COc1ccc(/C=C\c2cc(OC)c(OC)c(OC)c2)cc1OP(=O)(O)O [Fosbretabulin Disodium] , thanks.
result: 0.0977

query: Need surviving fraction of C/C=C1\NC(=O)[C@H]2CSSCC/C=C/[C@H](CC(=O)N[C@H](C(C)C)C(=O)N2)OC(=O)[C@H](C(C)C)NC1=O [Romidepsin] , thanks.
result: 0.00947

query: Need surviving fraction of Cc1c(-c2ccc(-c3ccccc3F)cc2)nc2ccc(F)cc2c1C(=O)O [Brequinar sodium salt hydrate] , thanks.
result: 0.471

query: Need surviving fraction of CC(C)(C)C1CCN(C(=O)n2ncc(C(O)(c3ccccc3)c3ccccc3)n2)CC1 [ML211] , thanks.
result: 0.916

query: Need surviving fraction of CO[C@H]1C(=O)[C@]2(C)[C@@H](OC)C[C@H]3OC[C@@]3(OC(C)=O)[C@H]2[C@H](OC(=O)c2ccccc2)[C@]2(O)C[C@H](OC(=O)[C@H](O)[C@@H](NC(=O)OC(C)(C)C)c3ccccc3)C(C)=C1C2(C)C [Cabazitaxel] , thanks.
result: 0.32

query: Need surviving fraction of C[C@H](Cc1cc2c(c(C(N)=O)c1)N(CCCO)CC2)NCCOc1ccccc1OCC(F)(F)F [Silodosin] , thanks.
result: 0.93

query: Need surviving fraction of C[C@@H]1C[C@@H]([C@H](O)CC2CC(=O)NC(=O)C2)C(=O)[C@@H](C)C1 [Cycloheximide] , thanks.
result: 0.306

query: Need surviving fraction of CC(C)C[C@@H](C(=O)N[C@H](C(=O)OC1CCCC1)c1ccccc1)[C@H](O)C(=O)NO [Tosedostat] , thanks.
result: 0.934

query: Need surviving fraction of CC(=O)O[C@@]12CO[C@@H]1C[C@H](O)[C@@]1(C)C(=O)[C@H](O)C3=C(C)[C@@H](OC(=O)[C@H](O)[C@@H](NC(=O)OC(C)(C)C)c4ccccc4)C[C@@](O)([C@@H](OC(=O)c4ccccc4)[C@H]21)C3(C)C [Docetaxel] , thanks.
result: 0.233

query: Need surviving fraction of COc1c(N2CCNC(C)C2)c(F)cc2c(=O)c(C(=O)O)cn(C3CC3)c12 (centres undefined) [Gatifloxacin] , thanks.
result: 0.89

query: Need surviving fraction of COc1cccc2c(NCc3ccccc3)nc(-n3c(N)nc4ccccc43)nc12 [ML240] , thanks.
result: 0.00521

query: Need surviving fraction of CC(C)CC(=O)N[C@H](C(=O)N[C@H](C(=O)N[C@@H](CC(C)C)[C@@H](O)CC(=O)N[C@@H](C)C(=O)N[C@@H](CC(C)C)[C@@H](O)CC(=O)O)C(C)C)C(C)C [Pepstatin A] , thanks.
result: 0.973

query: Need surviving fraction of C=C[C@H]1CN2CC[C@H]1C[C@@H]2[C@@H](O)c1ccnc2ccc(OC)cc12 [Quinidine hydrochloride monohydrate] , thanks.
result: 1.01

query: Need surviving fraction of CC1=C(/C=C/C(C)=C/C=C/C(C)=C/C(=O)Nc2ccc(O)cc2)C(C)(C)CCC1 [Retinoic acid p-hydroxyanilide] , thanks.
result: 0.00947

query: Need surviving fraction of Nc1ccn([C@@H]2O[C@H](CO)[C@@H](O)[C@@H]2O)c(=O)n1 [Cytarabine] , thanks.
result: 0.389
